- system_name: T1, soluble EpoR (EposR) (human, UniProt P19235 25-250, limits assumed)
- T1 construct: also called soluble recombinant human EpoR
- T1 sequence (looked up): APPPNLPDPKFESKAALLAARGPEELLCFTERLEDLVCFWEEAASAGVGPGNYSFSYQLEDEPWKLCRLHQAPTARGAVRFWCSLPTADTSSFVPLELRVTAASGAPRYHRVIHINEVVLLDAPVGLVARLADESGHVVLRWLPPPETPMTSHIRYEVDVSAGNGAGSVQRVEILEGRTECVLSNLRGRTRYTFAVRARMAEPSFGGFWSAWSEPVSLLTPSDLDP
- protocol_text: SPR (BIAcore), IgG2/K sub-variant of Ab12.6, EposR as test antigen
attribute_measured: pKd
pKd is a log-scale quantity: -log10 of the concentration expressed in molar.

// below: answered binders
>>> number("Ab12.118 (antibody, IgG2, V domains shown) VH: QVQLQESGPGLVKPSETLSLTCTVSGASISSYYWSWIRQPPGKGLEWIGYIGYSGSTNYNPSLKSRVTISVDTSKNQFSLKLRSVTAADTAVYYCARERLGIGDYWGQGTLVTVSS VL: DIQLTQSPSSLSASVGDRVTITCRASQGIRNDLGWYQQKPGKAPKRLIYAASSLQSGVPSRFSGSGSGTEFTLTISSLQPEDFATYYCLQHNTYPPTFGQGTKVEIK")
7.66
>>> number("Ab12.122 (antibody, IgG2, V domains shown) VH: QVQLQESGPGLVKPSETLSLTCTVSGASISSYYWSWIRQPPGKGLEWIGYIYGEGSTNYNPSLKSRVTISVDTSKNQFSLKLRSVTAADTAVYYCARERLGIGDYWGQGTLVTVSS VL: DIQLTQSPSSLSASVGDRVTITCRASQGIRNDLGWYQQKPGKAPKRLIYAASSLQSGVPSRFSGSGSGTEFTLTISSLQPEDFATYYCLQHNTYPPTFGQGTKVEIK")
7.64
>>> number("Ab12.120 (antibody, IgG2, V domains shown) VH: QVQLQESGPGLVKPSETLSLTCTVSGASISSYYWSWIRQPPGKGLEWIGYIYYEGSTNYNPSLKSRVTISVDTSKNQFSLKLRSVTAADTAVYYCARERLGIGDYWGQGTLVTVSS VL: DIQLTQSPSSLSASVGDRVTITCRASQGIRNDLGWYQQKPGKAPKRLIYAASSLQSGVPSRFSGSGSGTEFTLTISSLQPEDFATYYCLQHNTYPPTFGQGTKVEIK")
8.15
>>> number("Ab12.121 (antibody, IgG2, V domains shown) VH: QVQLQESGPGLVKPSETLSLTCTVSGASISSYYWSWIRQPPGKGLEWIGYIGGSGSTNYNPSLKSRVTISVDTSKNQFSLKLRSVTAADTAVYYCARERLGIGDYWGQGTLVTVSS VL: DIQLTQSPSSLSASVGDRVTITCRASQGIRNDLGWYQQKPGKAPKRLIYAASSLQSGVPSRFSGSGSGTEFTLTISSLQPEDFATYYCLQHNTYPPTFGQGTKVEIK")
7.51
>>> number("Ab12.123 (antibody, IgG2, V domains shown) VH: QVQLQESGPGLVKPSETLSLTCTVSGASISSYYWSWIRQPPGKGLEWIGYIGYEGSTNYNPSLKSRVTISVDTSKNQFSLKLRSVTAADTAVYYCARERLGIGDYWGQGTLVTVSS VL: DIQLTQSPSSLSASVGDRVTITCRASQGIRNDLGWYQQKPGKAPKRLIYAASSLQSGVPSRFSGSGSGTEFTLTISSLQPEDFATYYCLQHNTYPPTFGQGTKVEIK")
7.60

Could you now consider this next binder?
# input Which pKd reading was recorded for the binder Ab12.119 (antibody, IgG2, V domains shown) VH: QVQLQESGPGLVKPSETLSLTCTVSGASISSYYWSWIRQPPGKGLEWIGYIYGSGSTNYNPSLKSRVTISVDTSKNQFSLKLRSVTAADTAVYYCARERLGIGDYWGQGTLVTVSS VL: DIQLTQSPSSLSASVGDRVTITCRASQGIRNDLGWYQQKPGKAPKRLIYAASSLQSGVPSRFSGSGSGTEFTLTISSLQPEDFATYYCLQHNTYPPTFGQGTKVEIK ?
# output 7.68
